type: physicochemical
I'd be grateful if you could share measured pH 0 for these entries.
Numbers only.

Please review the entries below; each comes with its answer.
Request: Using the record for [Ca+2].[OH-].[OH-] [Ca(OH)2 0.1%, calcium hydroxide] , state its measured pH 0.
Response: 12.0

Request: For the compound [Ca+2].[OH-].[OH-] [Ca(OH)2 0.025%, calcium hydroxide] , give its measured pH 0 value.
Response: 11.3

Request: Recall and state the measured pH 0 for [Ca+2].[OH-].[OH-] [Ca(OH)2 0.013%, calcium hydroxide] .
Response: 11.0

New cases:
Request: Supply recorded pH 0 for [Ca+2].[OH-].[OH-] [Ca(OH)2 0.05%, calcium hydroxide] here.
Response: 11.6
